Reference source for all entries: patent US20170210813A1

- system_tested: T1, human PDGFRb.mFc (human)
- T1 construct: Soluble dimeric construct with mouse Fc; also called hPDGFRb.mFc; soluble human PDGFR-beta.mFc
- T1 chain: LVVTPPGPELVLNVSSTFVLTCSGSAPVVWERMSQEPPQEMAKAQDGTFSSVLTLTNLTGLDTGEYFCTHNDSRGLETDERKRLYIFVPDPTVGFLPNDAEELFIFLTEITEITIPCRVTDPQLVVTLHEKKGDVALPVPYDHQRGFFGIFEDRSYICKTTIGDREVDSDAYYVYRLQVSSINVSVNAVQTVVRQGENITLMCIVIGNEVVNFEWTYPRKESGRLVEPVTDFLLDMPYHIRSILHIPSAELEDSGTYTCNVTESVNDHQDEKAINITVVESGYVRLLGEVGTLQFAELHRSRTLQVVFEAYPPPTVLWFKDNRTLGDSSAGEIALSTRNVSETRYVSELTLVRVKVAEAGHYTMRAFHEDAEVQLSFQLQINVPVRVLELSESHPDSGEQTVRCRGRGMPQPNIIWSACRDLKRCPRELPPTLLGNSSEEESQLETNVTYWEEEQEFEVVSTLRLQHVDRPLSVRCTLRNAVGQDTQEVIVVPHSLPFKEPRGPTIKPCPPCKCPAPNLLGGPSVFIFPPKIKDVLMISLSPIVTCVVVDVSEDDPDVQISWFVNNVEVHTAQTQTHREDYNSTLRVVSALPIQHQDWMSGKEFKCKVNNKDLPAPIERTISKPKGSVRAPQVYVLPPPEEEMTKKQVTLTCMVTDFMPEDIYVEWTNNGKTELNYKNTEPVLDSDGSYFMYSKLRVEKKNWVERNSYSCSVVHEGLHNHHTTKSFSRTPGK
- assay_overview: SPR, mAb captured, 25 C
Could you please report measured kon for the items listed next?
Numbers only, in M⁻¹ s⁻¹.

Sample answers from the record:
[[record]]
binder = "H2M3368N (antibody, V domains shown, mouse Fc (H2M prefix; isotype not spelled out)) VH: QVQLQQWGAGLLKPSETLSLTCAVYGGSFSGYYWTWIRQSPGKGLEWMGEISHRGTTNYNPSLKSRLTISLDTSNNHFSLKLSSVTAADTAVYYCAREERLGMGYDYFGLDVWGQGTTVTVSS VL: EIVLTQSPATLSLSPGERATLSCRASQSVSTYLTWYQQKPGQAPRLLIYDASNRATGIPARFSGSGSGTDFTLTISSLEPEDCAVYYCQQRSIWITFGQGTRLEIK"
reported_result = 118000

[[record]]
binder = "H1M3361N (antibody, mouse IgG1, V domains shown, mouse IgG1 Fc (H1M prefix)) VH: EVQLVESGGGLVQPGGSLRLSCAASGFTFSSYWMTWVRQAPGKGLEWVANIRQDGSDKYYVDSVKGRFTISRDNAKNSLFLQMNSLRAEDTAVYYCARTNGGTYGYNHYYYGMDVWGQGTTVTVSS VL: DIQMTQSPSSLSASVGDRVTITCRASQGIRNDLGWYQLKPGKAPKRLIFAASSLQSGVPSRFSGSGSGTEFTLTISSLQPEDFATYYCLQHNSYPWTFGQGTKVEIK"
reported_result = 13100

[[record]]
binder = "H1M3374N (antibody, V domains shown, mouse Fc format; also called H2M3374N) VH: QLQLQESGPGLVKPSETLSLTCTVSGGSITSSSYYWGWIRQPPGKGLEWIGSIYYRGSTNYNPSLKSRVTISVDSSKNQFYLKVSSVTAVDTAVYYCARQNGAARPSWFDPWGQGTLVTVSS VL: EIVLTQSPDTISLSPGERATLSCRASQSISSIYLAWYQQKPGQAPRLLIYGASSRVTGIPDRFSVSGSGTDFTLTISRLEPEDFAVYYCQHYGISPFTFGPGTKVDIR"
reported_result = 996000


// next entry
Using known records, supply kon for H2M3373N (antibody, V domains shown, mouse Fc (H2M prefix; isotype not spelled out)) VH: EVQLRDSGGGLVQPGGSLRLSCVASGFTFSSYWMSWVRQAPGKGLEWVVNINRDGSEKYYVDSVKGRFIISRDNTKNSLYLQMESLRAEDTAVYYCARDPPYHLYGMDVWGQGTTVTVSS VL: DIQMTQSPSSLSASVGDRVTITCRTSQGIRVDLAWYQQKPGKAPERLIYAASSLQSGVPSRFSGGGSGTEFTLTVSSLQPEDFATYYCLQHHNFPYTFGQGTKLEIK
473000
